Read-out: Monokine induced gamma interferon (MIG), CXCL9 (gene 4283)
ASSAY INFO: BSK_CASM3C_MIG: BioMAP Diversity Plus: CASM3C Assay for Monokine induced gamma interferon (MIG) Biomarker Activity (AID 2283048);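 note: MIG protein level measured by ELISA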
TEST CONTEXT: primary human coronary artery smooth muscle cells; actives raise or lower the signal
Calls of active or inactive are those of the source. Rule for the calls: active = hit-call score of the fitted dose curve at least 0.9, where 1 is the maximum; inactive = score below 0.9.
VALUE KIND: outcome

- MOLECULE: "COC(=O)CCCC(=O)OC"
  outcome: "inactive"
- MOLECULE: "NCCOCCOCCN"
  outcome: "inactive"
- MOLECULE: "CS(=O)(=O)c1ccc([C@@H](C[C@H]2CCC(=O)C2)C(=O)Nc2cnccn2)cc1Cl"
  outcome: "inactive"
- MOLECULE: "Oc1ccccc1O"
  outcome: "inactive"
- MOLECULE: "CC(C)NCC(O)c1ccc(O)c(O)c1 (configuration not stated)"
  outcome: "inactive"
- MOLECULE: "N[C@@H](Cc1c[nH]c2ccccc12)C(=O)O"
  outcome: "inactive"
- MOLECULE: "CCCCCCCCCCCCCCCCO"
  outcome: "inactive"
- MOLECULE: "O=[Si]=O"
  outcome: "inactive"

Ask | Reported outcome for CC1(C)C(=O)NC(=O)N1CO : what is it?
Reply | inactive
